Please respond with reported cytotoxicity at 70.5 h for every item in the list.
- ASSAY SUMMARY: Human HepG2 cell viability assay in 384 well format
- Format: toxicity, cell-based
- Design: dose 125 nL, time 70.5 hour; concentration not given beside the values
- TEST CONDITIONS: HepG2 cells, read-out: Inhibition
One number for each entry, in %.

The examples below pair each entry with its known result.
Input CCCN(C)C(=O)c1cc(Br)cc(S(=O)(=O)N2CCOCC2)c1F . Output cytotoxicity at 70.5 h: 6.3

Input O=C(C1CCC1)N1CCC(C2CCN(Cc3ccc(Cl)cc3)C2)CC1 (stereo not given) . Output cytotoxicity at 70.5 h: -3.08

Input CC(NC(=O)NCCN1CCCCCC1=O)c1nncn1C (stereo not given) . Output cytotoxicity at 70.5 h: 7.16

Report cytotoxicity at 70.5 h for every entry below.
1. Cc1cc(N(C)C)nc(C2CCNC2)n1 (stereo not given)
2. CC(C)(C)c1ncc(C(=O)NC(C(N)=O)c2ccccc2)s1 (stereo not given)
3. Cc1cnn(CCNCc2nccn2CC(F)(F)F)c1
4. CC(=O)N[C@@H]1CN(C(=O)c2ccc[nH]2)C[C@H]1c1ccc(C)o1

1. 45.3
2. 15.8
3. 1.15
4. 0.0626

Report cytotoxicity at 70.5 h for every entry below.
1. CN(Cc1ccc(F)cc1)C(=O)NCC1(N2CCOCC2)CCSC1 (stereo not given)
2. CCCNC(=O)NC(=O)CNC(C)(C)c1ccc2c(c1)OCCO2

1: 11.7; 2: -2.49

Report cytotoxicity at 70.5 h for every entry below.
1. Cc1cccc(NC(=O)CN(C)C(=O)c2scnc2C)n1
2. CCS(=O)(=O)CCSc1ccc(Cl)cc1
3. COCCN1CCC2(CC1)CC(NCc1ccc(C)s1)c1ccccc12 (stereo not given)
4. Cc1cc(C)c(CNc2ncnc3ccsc23)c(=O)[nH]1

1: 0.715; 2: 27; 3: 2.38; 4: -9.82

Report cytotoxicity at 70.5 h for every entry below.
1. COCCSCC(=O)NC1(c2cccc(Br)c2)CC1
2. Cc1ccc(SCC2CNc3nc4ccccc4c(=O)n32)c(C)c1 (stereo not given)
3. Fc1cccc(C2CCCN2Cc2nnnn2C2CC2)c1 (stereo not given)
4. Cc1cccc(CN(Cc2ccccn2)S(=O)(=O)N(C)C(C)C)c1
5. N#Cc1ccc(C(=O)N2C[C@@H](CN3CCCC3)C[C@H](CO)C2)cc1
6. CC(C)NC(=O)C1CN(Cc2ccsc2)Cc2ccnn2C1 (stereo not given)
7. CC1CCN(C(=O)c2cn(-c3ccc(C(F)(F)F)cn3)nn2)CC1

1. -2.67
2. 20
3. -8.46
4. -14
5. -2.46
6. 1.63
7. -0.268

Data provenance is ChEMBL document CHEMBL3507680.
